B1: library; a variant is named by its letters at N, in order (parent)
chain: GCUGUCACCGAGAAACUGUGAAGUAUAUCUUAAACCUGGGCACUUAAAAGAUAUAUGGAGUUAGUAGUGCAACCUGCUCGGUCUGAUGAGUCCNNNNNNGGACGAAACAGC

Variants of: B1
protocolDetails: normalized RNA/DNA level without ligand (relative to sTRSVctl = 100) (log10 (% of sTRSVctl)); HEK293T; ligand: cyclic di-GMP (c-di-GMP-II aptamer); higher = less ribozyme self-cleavage, higher mRNA level
conditionDescription: reporter: mCherry (pCS4076), ligand present: no
assayMetric: normalized RNA/DNA level without ligand (log10)

mutant: UAUGUA
result: 1.67

mutant: GAUUGG
result: 1.63

mutant: ACACGU
result: 1.62

mutant: UAUCGA
result: 1.61

mutant: AUGUCG
result: 1.64

mutant: UUUGAG
result: 1.71

mutant: GUGCAC
result: 1.73

mutant: CAAGGG
result: 1.6

mutant: ACCUAC
result: 1.7

mutant: UCUAGU
result: 1.66

mutant: GCGAAA
result: 1.34

mutant: GGCGAA
result: 1.56

mutant: UUCUAA
result: 1.66

mutant: GUCCAC
result: 1.68

mutant: CCACGU
result: 1.64

mutant: CUUAAG
result: 1.69

mutant: GGCGUC
result: 1.68

mutant: CUACGU
result: 1.73

mutant: GUGAAU
result: 1.57

mutant: AGACGG
result: 1.62

mutant: AGGGUU
result: 1.69

mutant: CAGUCG
result: 1.76

mutant: UAAACA
result: 1.74

mutant: GUAUAA
result: 1.5

mutant: UCUUGG
result: 1.84

mutant: GGUGUA
result: 1.6

mutant: UGGUGA
result: 1.57

mutant: UAAUGA
result: 1.6

mutant: UUAUUA
result: 1.68

mutant: UAAGGA
result: 1.54

mutant: AGCUUG
result: 1.59

mutant: UACGAU
result: 1.63

mutant: CAUCCA
result: 1.44

mutant: UGCUGG
result: 1.7

mutant: AACGUG
result: 1.55

mutant: CCCUAU
result: 1.62

mutant: CCCUCG
result: 1.75

mutant: GCUAGU
result: 1.58

mutant: CGUCAC
result: 1.63

mutant: UUAACU
result: 1.77
